Source: paper PMC10397247

Reported interaction score values for a set of binders
- subject of test: T1, 4H56-bH
- T1 chain: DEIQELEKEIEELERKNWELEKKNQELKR
- experiment description: two-hybrid library CCNG1;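 further: natural log of median RNA to DNA barcode read ratio; higher means stronger binding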

[
  {
    "binder": "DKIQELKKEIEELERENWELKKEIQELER [4H2585-bH]",
    "interaction score": 0.21
  },
  {
    "binder": "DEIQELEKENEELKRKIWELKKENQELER [4H235-bH]",
    "interaction score": 0.0558
  },
  {
    "binder": "DKNQELEKKIEELERKNWELEKKIQELER [4H3381-bH]",
    "interaction score": -1.78
  },
  {
    "binder": "DKIQELKKKIEELKRKNWELEKENQELER [4H2931-bH]",
    "interaction score": -0.623
  },
  {
    "binder": "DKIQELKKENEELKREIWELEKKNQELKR [4H2760-bH]",
    "interaction score": -1.85
  }
]
